EXPERIMENTAL TARGET: rat mGlu3 (Rattus norvegicus (Rat))
EXPERIMENT NOTES: mGlu3 Ca2+ flux assay
Format: cell-based
EXPERIMENTAL SETUP: NAM potency, decrease of glutamate EC80 response; >30,000 = no measurable activity; >10,000 = no plateau; read-out: rat mGlu3 IC50
TEST READOUT: IC50 (µM)
Report only the number, with the unit µM understood.

Below are worked cases with known answers.
>>> readout_number("CC(Nc1ccc(F)cc1)c1cc2n(n1)CCN(c1ccc(F)cc1)C2=O (stereo not drawn)")
2.15
>>> readout_number("COc1ccc(N(C)Cc2cc3n(n2)CCN(c2ccc(F)cc2)C3=O)cc1")
0.986
>>> readout_number("C[C@H]1CN(c2ccc(F)cc2)C(=O)c2cc(CNc3ccc(F)cc3F)nn21")
1.17
>>> readout_number("C[C@@H]1CN(c2ccc(F)cc2)C(=O)c2cc(CNc3ccccc3)nn21")
1.38
>>> readout_number("COc1ccc(N(C)Cc2cc3n(n2)CCN(c2ccccc2Cl)C3=O)cc1")
0.777

Request: Retrieve IC50 measured for "O=C1c2cc(CNc3ccc(OC(F)F)cc3F)nn2CCN1c1ccccc1F" and print it.
Response: 0.772

Request: Give the reported IC50 for this compound. "C[C@@H]1CN(c2ccc(F)cc2)C(=O)c2cc(CNc3ccc(Cl)cc3)nn21"
Response: 1.25

Request: Note down IC50 recorded for "COc1ccc(NCc2cc3n(n2)CCN(c2ccc(F)cc2)C3=O)cc1"
Response: 2.12

Request: Complete the entry with IC50 for "COc1ccc(N(C)Cc2cc3n(n2)CCN(c2ccccc2C#N)C3=O)cc1"
Response: 3.79

Request: Give the reported value of IC50 for this record: "O=C1c2cc(CNc3ccc(OC(F)F)cc3F)nn2CCN1c1ccc(F)cc1F"
Response: 0.706

Request: Complete the entry with IC50 for "COc1ccc(N(C)Cc2cc3n(n2)CCN(c2ccc(Cl)c(F)c2)C3=O)cc1"
Response: 1.27

---

EXPERIMENTAL TARGET: rat mGlu3 (Rattus norvegicus (Rat), UniProt P31422)
Sequence (P31422 23-879): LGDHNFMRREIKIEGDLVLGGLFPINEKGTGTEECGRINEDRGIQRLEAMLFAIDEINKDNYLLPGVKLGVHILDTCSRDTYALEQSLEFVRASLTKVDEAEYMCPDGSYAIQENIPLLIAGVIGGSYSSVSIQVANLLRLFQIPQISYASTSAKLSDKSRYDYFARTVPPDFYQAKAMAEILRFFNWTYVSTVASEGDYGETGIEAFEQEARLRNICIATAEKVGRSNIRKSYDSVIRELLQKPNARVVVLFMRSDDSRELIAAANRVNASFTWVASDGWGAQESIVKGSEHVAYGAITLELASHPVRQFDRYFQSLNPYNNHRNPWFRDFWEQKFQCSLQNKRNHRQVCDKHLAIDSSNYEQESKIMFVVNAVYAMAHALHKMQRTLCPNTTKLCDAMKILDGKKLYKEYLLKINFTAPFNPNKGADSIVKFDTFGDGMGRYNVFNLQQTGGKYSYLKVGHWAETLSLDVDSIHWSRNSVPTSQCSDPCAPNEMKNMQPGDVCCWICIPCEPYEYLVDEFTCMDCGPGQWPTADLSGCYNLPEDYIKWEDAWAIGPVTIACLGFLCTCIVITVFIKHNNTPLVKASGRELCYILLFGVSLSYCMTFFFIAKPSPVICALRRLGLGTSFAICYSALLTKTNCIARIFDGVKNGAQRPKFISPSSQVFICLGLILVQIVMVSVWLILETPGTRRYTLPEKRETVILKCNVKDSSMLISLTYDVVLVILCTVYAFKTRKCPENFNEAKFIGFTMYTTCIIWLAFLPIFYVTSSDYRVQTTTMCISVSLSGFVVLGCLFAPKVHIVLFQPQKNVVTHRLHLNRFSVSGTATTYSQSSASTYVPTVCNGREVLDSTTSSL
EXPERIMENT NOTES: mGlu3 Ca2+ flux assay
Type: cell-based
EXPERIMENTAL SETUP: amplitude of response at 30 μM test compound as % of maximal response to glutamate; read-out: rat mGlu3 Glu max (%)
molecules and their reported remaining activity at 30 µM
Express it in %; write the number only.

>>> readout_number("O=C1c2cc(CNc3ccc(OC(F)F)cc3F)nn2CCN1c1ccc(F)c(F)c1")
2.55
>>> readout_number("CC(Nc1ccc(F)cc1)c1cc2n(n1)CCN(c1ccc(F)cc1)C2=O (stereo not drawn)")
0.39
>>> readout_number("O=C1c2cc(CNc3ccc(F)c(F)c3)nn2CCN1c1ccc(F)cc1")
2.02

Request: Answer with the recorded remaining activity at 30 µM of "COc1ccc(N(C)Cc2cc3n(n2)CCN(c2ccc(Cl)cn2)C3=O)cc1" only.
Response: 1.64

Request: Supply recorded remaining activity at 30 µM for "COc1ccc(N(C)Cc2cc3n(n2)CCN(c2cccc(F)c2)C3=O)cc1" here.
Response: 1.57

Request: In one line, give reported remaining activity at 30 µM of the entry "C[C@H]1CN(c2ccc(F)cc2)C(=O)c2cc(CNc3ccc(F)cc3)nn21" .
Response: 0.96

Request: Fill in remaining activity at 30 µM for record "CCc1ccc(NCc2cc3n(n2)CCN(c2ccc(F)cc2)C3=O)cc1"
Response: -11

Request: Look up and report measured remaining activity at 30 µM for this entry: "O=C1c2cc(CNc3c(F)cccc3F)nn2CCN1c1ccc(F)cc1"
Response: 1.25

Request: Kindly indicate its recorded remaining activity at 30 µM. Item: "COc1ccccc1N(C)Cc1cc2n(n1)CCN(c1ccc(F)cc1)C2=O"
Response: -7.96

---

EXPERIMENTAL TARGET: rat mGlu3 (Rattus norvegicus (Rat), UniProt P31422)
EXPERIMENT NOTES: mGlu3 Ca2+ flux assay
Format: cell-based
EXPERIMENTAL SETUP: Table 2 compounds with X = O; read-out: mGlu3 IC50
TEST READOUT: pIC50
Give only the number. pIC50 is defined as minus log10 of concentration in molar units.

>>> readout_number("O=C1c2cc(COc3ccccc3F)nn2CCN1c1ccc(F)cc1 [drawing 30 X = O, reference compound]")
6.58

Request: Indicate its recorded pIC50; the compound in question is O=C1c2cc(COc3ccccc3)nn2CCN1c1ccc(F)cc1 [drawing 29 X = O, reference compound]
Response: 6.56

Request: Assign pIC50 to the following record: O=C1c2cc(COc3ccc(F)cc3)nn2CCN1c1ccc(F)cc1 [drawing 32 X = O, reference compound]
Response: 6.97

Request: Answer with the recorded pIC50 for the compound listed here: O=C1c2cc(COc3cccc(F)c3)nn2CCN1c1ccc(F)cc1 [drawing 31 X = O, reference compound]
Response: 6.88

---

EXPERIMENTAL TARGET: rat mGlu3 (Rattus norvegicus (Rat), UniProt P31422)
EXPERIMENT NOTES: mGlu3 Ca2+ flux assay
Type: cell-based
EXPERIMENTAL SETUP: NAM potency, decrease of glutamate EC80 response; >30,000 = no measurable activity; >10,000 = no plateau; read-out: rat mGlu3 IC50
TEST READOUT: pIC50
Recall that pIC50 is obtained by taking minus log10 of the concentration measured in molar.

>>> readout_number("C[C@@H]1CN(c2ccc(F)cc2)C(=O)c2cc(CNc3ccc(F)c(F)c3)nn21 [Compound 77]")
5.80
>>> readout_number("Cc1ccnc(NCc2cc3n(n2)CCN(c2ccc(F)cc2)C3=O)c1 [Compound 161]")
5.43
>>> readout_number("C[C@@H]1CN(c2ccc(F)cc2)C(=O)c2cc(CNc3ccc(F)cc3)nn21 [Compound 56]")
5.94
>>> readout_number("O=C1c2cc(CNc3cccc(Cl)c3)nn2CCN1c1ccc(F)cc1 [Compound 9]")
5.92
>>> readout_number("O=C1c2cc(CNc3cccc(OC(F)F)c3)nn2CCN1c1ccc(F)cc1 [Compound 12]")
6.30
>>> readout_number("C[C@H]1CN(c2ccc(F)cc2)C(=O)c2cc(CNc3c(F)cc(F)cc3F)nn21 [Compound 80]")
5.36

Request: Lab note: rat mGlu3 (Rattus norvegicus (Rat), UniProt P31422) assay, enter pIC50 for Cc1ccc(NCc2cc3n(n2)CCN(c2ccc(F)cc2)C3=O)c(F)c1 [Compound 35] here
Response: 6.10

Request: # assay system rat mGlu3 (Rattus norvegicus (Rat), UniProt P31422): give pIC50 of C[C@@H]1CN(c2ccc(F)cc2)C(=O)c2cc(CNc3ccc(F)cc3F)nn21 [Compound 75]
Response: 6.11

---

# key: entry, value: pIC50
EXPERIMENTAL TARGET: rat mGlu3 (Rattus norvegicus (Rat))
EXPERIMENT NOTES: mGlu3 Ca2+ flux assay
Type: cell-based
EXPERIMENTAL SETUP: Table 2 compounds with X = NH; read-out: mGlu3 IC50
The meaning of pIC50 here: minus log10 of the concentration in molar units.

Past entries and their recorded results:
>>> readout_number("O=C1c2cc(CNc3ccc(F)cc3)nn2CCN1c1ccc(F)cc1 [drawing 32 X = NH]")
5.94
>>> readout_number("O=C1c2cc(CNc3cccc(F)c3)nn2CCN1c1ccc(F)cc1 [drawing 31 X = NH]")
5.98
>>> readout_number("O=C1c2cc(CNc3ccccc3)nn2CCN1c1ccc(F)cc1 [drawing 29 X = NH]")
5.88

Request: Please list pIC50 recorded for the compound O=C1c2cc(CNc3ccccc3F)nn2CCN1c1ccc(F)cc1 [drawing 30 X = NH]
Response: 6.03

---

Each entry below lists one item and its recorded pEC50 value.
EXPERIMENTAL TARGET: rat mGlu5 (Rattus norvegicus (Rat), UniProt P31424)
Sequence (P31424 21-1203): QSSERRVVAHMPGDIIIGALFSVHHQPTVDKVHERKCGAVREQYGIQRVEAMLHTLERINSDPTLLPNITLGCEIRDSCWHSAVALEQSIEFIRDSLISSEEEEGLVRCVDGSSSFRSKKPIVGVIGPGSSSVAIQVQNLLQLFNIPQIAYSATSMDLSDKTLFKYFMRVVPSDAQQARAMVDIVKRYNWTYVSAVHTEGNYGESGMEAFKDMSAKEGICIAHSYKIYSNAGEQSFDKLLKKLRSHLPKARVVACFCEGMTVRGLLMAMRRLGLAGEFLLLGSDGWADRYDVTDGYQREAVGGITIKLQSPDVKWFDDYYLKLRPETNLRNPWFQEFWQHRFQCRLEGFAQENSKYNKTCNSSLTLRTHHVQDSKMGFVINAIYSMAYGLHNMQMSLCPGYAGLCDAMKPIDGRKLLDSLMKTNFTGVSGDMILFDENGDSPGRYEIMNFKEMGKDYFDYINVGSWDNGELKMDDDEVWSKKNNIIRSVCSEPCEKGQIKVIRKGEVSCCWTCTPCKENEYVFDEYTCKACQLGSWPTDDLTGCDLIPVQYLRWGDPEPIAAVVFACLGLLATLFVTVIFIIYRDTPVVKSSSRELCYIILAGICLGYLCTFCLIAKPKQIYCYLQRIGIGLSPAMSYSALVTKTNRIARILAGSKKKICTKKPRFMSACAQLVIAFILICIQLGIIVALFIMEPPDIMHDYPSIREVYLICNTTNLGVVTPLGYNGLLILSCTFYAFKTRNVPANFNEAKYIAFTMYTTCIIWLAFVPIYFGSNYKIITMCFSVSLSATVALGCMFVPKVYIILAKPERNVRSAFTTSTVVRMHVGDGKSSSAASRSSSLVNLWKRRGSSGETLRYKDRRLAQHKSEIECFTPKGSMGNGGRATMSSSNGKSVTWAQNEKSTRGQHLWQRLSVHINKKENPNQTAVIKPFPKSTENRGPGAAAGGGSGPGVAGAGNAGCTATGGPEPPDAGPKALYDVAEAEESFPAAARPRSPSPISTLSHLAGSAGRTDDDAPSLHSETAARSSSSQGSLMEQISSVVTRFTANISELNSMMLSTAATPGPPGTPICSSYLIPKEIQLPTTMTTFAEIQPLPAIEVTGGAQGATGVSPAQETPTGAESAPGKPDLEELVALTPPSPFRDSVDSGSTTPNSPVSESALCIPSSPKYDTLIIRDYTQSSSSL
EXPERIMENT NOTES: mGlu5 Ca2+ flux assay
Format: cell-based
EXPERIMENTAL SETUP: read-out: rat mGlu5 EC50 or IC50
pEC50 is defined as minus the log10 of a concentration measured in mol/L.

>>> readout_number("Cc1ccc(NCc2cc3n(n2)CCN(c2ccc(F)cc2)C3=O)c(F)c1 [Compound 35]")
5.32

Request: Write down measured pEC50 (rat mGlu5 (Rattus norvegicus (Rat), UniProt P31424)) for this molecule. O=C1c2cc(CNc3cc(F)ccc3F)nn2CCN1c1ccc(F)cc1 [Compound 29]
Response: 5.79

---

Readings of Fold selectivity (mGlu3 vs. mGlu5) for the listed compounds
EXPERIMENTAL TARGET: rat mGlu5 (Rattus norvegicus (Rat), UniProt P31424)
EXPERIMENT NOTES: mGlu5 Ca2+ flux assay
Type: cell-based
EXPERIMENTAL SETUP: ratio of rat mGlu5 EC50 or IC50 to rat mGlu3 IC50

>>> result("COc1ccc(NCc2cc3n(n2)CCN(c2ccc(F)cc2)C3=O)cc1 [Compound 17]")
">14"

Request: Give a short answer stating reported Fold selectivity (mGlu3 vs. mGlu5) for C[C@@H]1CN(c2ccc(F)cc2)C(=O)c2cc(CNc3ccccc3)nn21 [Compound 40] .
Response: 3.49

Request: Read off the recorded Fold selectivity (mGlu3 vs. mGlu5) for COc1ccc(N(C)Cc2cc3n(n2)CCN(c2ccc(F)c(Cl)c2)C3=O)cc1 [Compound 133]
Response: >24
